measured_target: CYP2C19 (Homo sapiens, UniProt P33261)
Sequence (P33261 whole entry): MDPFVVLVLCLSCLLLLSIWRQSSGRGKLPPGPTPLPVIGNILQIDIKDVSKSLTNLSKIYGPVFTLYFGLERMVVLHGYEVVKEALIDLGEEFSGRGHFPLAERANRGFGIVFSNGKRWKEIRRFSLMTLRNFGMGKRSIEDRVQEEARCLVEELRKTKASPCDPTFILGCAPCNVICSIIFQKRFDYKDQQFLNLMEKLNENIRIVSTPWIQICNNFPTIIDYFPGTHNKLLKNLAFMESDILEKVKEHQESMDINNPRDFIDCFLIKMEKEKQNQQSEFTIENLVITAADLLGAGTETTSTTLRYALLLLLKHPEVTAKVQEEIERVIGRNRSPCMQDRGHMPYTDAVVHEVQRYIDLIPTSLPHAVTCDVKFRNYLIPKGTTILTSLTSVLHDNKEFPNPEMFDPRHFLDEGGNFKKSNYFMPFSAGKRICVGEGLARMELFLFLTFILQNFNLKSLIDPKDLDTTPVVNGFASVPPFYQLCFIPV
measurement_protocol: Inhibition of human CYP2C19 assessed as ratio of IC50 in absence of NADPH to IC50 for presence of NADPH using 3-butyryl-7-methoxycoumarin as substrate after 30 mins
Form field: IC50 shift at 0.5 h (one value per entry).

NNC(=O)c1ccncc1 = > 5
NNCCc1ccccc1 = > 5

What value of measured IC50 shift at 0.5 h is listed for CNCCC(Oc1ccc(C(F)(F)F)cc1)c1ccccc1 (stereo not drawn) ?
> 5

====

measured_target: CYP3A4 (Homo sapiens)
Sequence (P08684 whole entry): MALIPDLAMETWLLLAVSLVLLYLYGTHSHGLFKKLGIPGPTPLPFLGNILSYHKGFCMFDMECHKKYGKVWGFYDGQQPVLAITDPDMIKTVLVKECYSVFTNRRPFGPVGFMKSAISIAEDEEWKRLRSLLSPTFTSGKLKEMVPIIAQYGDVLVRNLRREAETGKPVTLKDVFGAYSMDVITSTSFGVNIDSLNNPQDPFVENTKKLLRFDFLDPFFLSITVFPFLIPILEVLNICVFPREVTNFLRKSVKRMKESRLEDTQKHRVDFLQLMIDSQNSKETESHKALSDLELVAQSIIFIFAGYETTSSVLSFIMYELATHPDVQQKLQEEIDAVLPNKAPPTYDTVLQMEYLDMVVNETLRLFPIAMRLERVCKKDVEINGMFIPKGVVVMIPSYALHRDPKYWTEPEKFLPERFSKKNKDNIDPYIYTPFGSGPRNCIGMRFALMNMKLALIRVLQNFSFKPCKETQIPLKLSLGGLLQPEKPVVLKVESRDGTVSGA
measurement_protocol: Inhibition of human CYP3A4 assessed as ratio of IC50 in absence of NADPH to IC50 for presence of NADPH using 7-benzyloxyquinoline as substrate after 30 mins
endpoint: IC50 shift at 0.5 h

Example results:
CCCc1cc(=O)[nH]c(=S)[nH]1 = > 5
CNCCC(Oc1ccc(C(F)(F)F)cc1)c1ccccc1 (stereo not drawn) = > 5

What value of measured IC50 shift at 0.5 h is listed for COc1cccc2c1C(=O)c1c(O)c3c(c(O)c1C2=O)C[C@@](O)(C(=O)CO)C[C@@H]3O[C@H]1C[C@H](N)[C@H](O)[C@H](C)O1 ?
> 5

# repeat for CS(=O)(=O)Nc1ccc([N+](=O)[O-])cc1Oc1ccccc1 [NIMESULIDE]
< 2
